# Tested Target: DNA (cytosine-5)-methyltransferase 1 (Homo sapiens, UniProt P26358)
# Sequence (P26358 whole entry): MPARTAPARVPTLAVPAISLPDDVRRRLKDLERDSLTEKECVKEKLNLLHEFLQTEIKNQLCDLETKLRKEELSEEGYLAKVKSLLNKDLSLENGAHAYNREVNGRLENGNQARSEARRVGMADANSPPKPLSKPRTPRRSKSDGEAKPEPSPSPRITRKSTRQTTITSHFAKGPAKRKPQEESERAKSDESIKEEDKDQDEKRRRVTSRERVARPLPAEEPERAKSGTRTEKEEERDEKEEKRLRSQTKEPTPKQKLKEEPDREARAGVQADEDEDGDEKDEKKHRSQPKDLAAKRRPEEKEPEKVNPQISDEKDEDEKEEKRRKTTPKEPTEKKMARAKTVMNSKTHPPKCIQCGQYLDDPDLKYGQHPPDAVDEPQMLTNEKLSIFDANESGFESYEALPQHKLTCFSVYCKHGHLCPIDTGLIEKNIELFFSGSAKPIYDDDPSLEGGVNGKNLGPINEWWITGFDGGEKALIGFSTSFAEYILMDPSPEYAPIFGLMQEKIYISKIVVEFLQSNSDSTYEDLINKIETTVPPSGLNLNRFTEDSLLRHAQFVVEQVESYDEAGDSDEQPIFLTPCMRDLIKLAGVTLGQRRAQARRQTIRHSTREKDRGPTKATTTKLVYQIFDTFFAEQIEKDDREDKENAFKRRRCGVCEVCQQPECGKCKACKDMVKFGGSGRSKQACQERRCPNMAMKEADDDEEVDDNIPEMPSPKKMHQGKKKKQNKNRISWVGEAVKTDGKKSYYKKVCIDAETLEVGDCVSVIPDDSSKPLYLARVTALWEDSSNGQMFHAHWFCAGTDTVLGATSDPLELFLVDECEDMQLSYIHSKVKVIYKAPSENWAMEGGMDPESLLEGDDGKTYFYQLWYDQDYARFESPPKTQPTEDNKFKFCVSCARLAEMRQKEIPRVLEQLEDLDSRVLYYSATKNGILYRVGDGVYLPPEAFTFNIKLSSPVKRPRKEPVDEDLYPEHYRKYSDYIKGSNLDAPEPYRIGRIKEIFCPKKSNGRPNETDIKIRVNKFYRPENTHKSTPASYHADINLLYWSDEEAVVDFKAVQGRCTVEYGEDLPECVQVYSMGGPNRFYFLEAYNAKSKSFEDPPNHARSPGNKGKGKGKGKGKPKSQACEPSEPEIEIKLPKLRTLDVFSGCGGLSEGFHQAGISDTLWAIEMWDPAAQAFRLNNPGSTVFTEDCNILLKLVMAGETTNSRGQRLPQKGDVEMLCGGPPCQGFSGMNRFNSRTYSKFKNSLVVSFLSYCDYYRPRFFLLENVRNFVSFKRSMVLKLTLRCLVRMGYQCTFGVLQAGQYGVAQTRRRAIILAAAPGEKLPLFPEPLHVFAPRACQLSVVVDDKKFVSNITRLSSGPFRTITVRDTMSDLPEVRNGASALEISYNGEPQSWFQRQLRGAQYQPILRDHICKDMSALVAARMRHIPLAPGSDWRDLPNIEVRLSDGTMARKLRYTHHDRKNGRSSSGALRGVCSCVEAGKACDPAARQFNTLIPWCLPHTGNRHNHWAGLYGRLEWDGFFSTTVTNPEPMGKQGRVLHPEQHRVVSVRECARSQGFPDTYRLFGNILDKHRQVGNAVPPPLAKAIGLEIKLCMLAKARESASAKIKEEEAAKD
# Assay Procedure: Inhibition of human recombinant DNMT1 expressed in baculovirus infected high five insect cells
pIC50: −log10 of the molar value.
Quantity Name: pIC50

Below: 2 compounds and their reported pIC50.
                                   compound                             tested_target  reported
0  Nc1ncnc2c1nnn2[C@@H]1O[C@H](CSCCC(N)C(=O)O)[C@@H](O)[C@H]1O (some centres undefined)  DNA (cytosine-5)-methyltransferase 1 (Homo sapiens, UniProt P26358)      5.10
1  NC(CCSC[C@H]1O[C@@H](n2cnc3c(NCc4ccccc4)ncnc32)[C@H](O)[C@@H]1O)C(=O)O (some centres undefined)  DNA (cytosine-5)-methyltransferase 1 (Homo sapiens, UniProt P26358)      4.21

[1] COc1nc(N)c2ncn([C@@H]3O[C@H](CSCCC(N)C(=O)O)[C@@H](O)[C@H]3O)c2n1 (some centres undefined)
[2] CSc1nc(N)c2ncn([C@@H]3O[C@H](CSCCC(N)C(=O)O)[C@@H](O)[C@H]3O)c2n1 (some centres undefined)
*Q* Kindly identify which of 1 and 2 has the larger recorded pIC50 value. Provide the label of your selected option as the answer.
*A* 1

* * *

// IC50 collected for UniProt Q9UBC3
Quantity Name: IC50 (µM)

[I] NC(CCSC[C@H]1O[C@@H](n2cnc3c(NCc4ccccc4)ncnc32)[C@H](O)[C@@H]1O)C(=O)O (stereo partly drawn)
[II] CSc1nc(N)c2ncn([C@@H]3O[C@H](CSCCC(N)C(=O)O)[C@@H](O)[C@H]3O)c2n1 (stereo partly drawn)
*Q* Kindly identify which of I and II has the larger recorded IC50 value. Provide the label of your selected option as the answer.
*A* II
